Molecular target: rSmLDH (SmLDH1, lactate dehydrogenase) (Spirometra erinaceieuropaei, UniProt E3SW74)
Construct: gene LDH; recombinant SmLDH1 (GenBank ADK62519.1, 338 aa), pQE-80L, E. coli BL21
Sequence (E3SW74 1-338): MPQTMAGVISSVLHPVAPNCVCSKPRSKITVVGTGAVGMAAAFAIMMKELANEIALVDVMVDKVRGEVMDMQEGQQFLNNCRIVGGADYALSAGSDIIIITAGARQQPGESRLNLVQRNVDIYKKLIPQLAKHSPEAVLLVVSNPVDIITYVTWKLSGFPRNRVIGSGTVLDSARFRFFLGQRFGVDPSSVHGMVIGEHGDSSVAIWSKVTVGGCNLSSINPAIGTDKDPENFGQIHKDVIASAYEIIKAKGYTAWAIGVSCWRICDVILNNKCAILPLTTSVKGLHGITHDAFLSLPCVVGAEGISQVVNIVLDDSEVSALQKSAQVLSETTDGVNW
Experiment: LDH activity at […] nm, Lineweaver-Burk Ki (lactate oxidation; reduction Ki […])
Assay type: biochemical
quantity-measured: Ki (µM)
Only the number, expressed in µM, is required.

Fill in: Ki of O=C(O)C(=O)O [Oxalate] is ___
47.1

---

Target: rSmLDH (SmLDH1, lactate dehydrogenase) (Spirometra erinaceieuropaei)
Construct: gene LDH; recombinant SmLDH1 (GenBank ADK62519.1, 338 aa), pQE-80L, E. coli BL21
Experiment: LDH activity at […] nm, Lineweaver-Burk Ki (lactate oxidation; reduction Ki […], IC50 […])
Format: biochemical
quantity-measured: pKi
Remember, pKi is on a log scale: it is -log10 of the molar concentration.

Fill in: pKi of `Cc1cc2c(C(C)C)c(O)c(O)c(C=O)c2c(O)c1-c1c(C)cc2c(C(C)C)c(O)c(O)c(C=O)c2c1O` is ___
4.38

---

Target: rSmLDH (SmLDH1, lactate dehydrogenase) (Spirometra erinaceieuropaei, UniProt E3SW74)
Construct: gene LDH; recombinant SmLDH1 (GenBank ADK62519.1, 338 aa), pQE-80L, E. coli BL21
Assay: LDH activity at […] nm, Lineweaver-Burk Ki (pyruvate reduction; oxidation Ki […])
Assay type: biochemical
quantity-measured: Ki
Just the number plus its unit, please.

Identify the measured Ki of NC(=S)c1cccnc1 [Thio, Thionicotinamide] for rSmLDH (SmLDH1, lactate dehydrogenase) (Spirometra erinaceieuropaei, UniProt E3SW74).
89.4 µM
